Origin of measurements: PubChem BioAssay (NCI)

Provide the recorded TGI for the entries that follow.
- Tested on: SK-MEL-5 melanoma
- Protocol details: NCI tumour cell line growth inhibition, 48 h

> print(dat)
                                chem.smiles  measurement.name  reported.measurement
1  O=[N+]([O-])c1ccccc1S(=O)(=O)c1ccccc1[N+](=O)[O-]               TGI             > 56.2 µM
2      CCOC(=O)/C(=C/c1cc(OC)ccc1OC)CC(=O)O               TGI              > 100 µM

Then this compound:
Recorded result, "O=C(c1ccc(F)c(F)c1Nc1ccc(I)cc1F)N1CC(O)([C@H]2CCCCN2)C1" , TGI: 6.06 µM

###

- Test system: SF-295 CNS
- Protocol details: NCI tumour cell line growth inhibition, 48 h
Provide the recorded log10(TGI) for the entries that follow.
In plain terms, each number is the log10 of measured TGI in µM.

# per-item lookup of log10(TGI); items listed below
1. C[C@H](Nc1ccc(C#N)n(C)c1=O)c1cc2cc(Cl)ccc2[nH]c1=O
2. Cc1nc(NC(=O)COc2cccc(/C=C3\COc4ccccc4C3=O)c2)sc1C
3. O=C(c1ccsc1)c1cc2c(s1)C(=O)c1ccsc1C2=O
4. Nc1ccccc1C#Cc1ccccc1C#Cc1ccccc1N
5. COC(=O)C1=C(C(=O)Nc2cccnc2)C2OC1(C(Cc1ccccc1)Oc1ccccc1)C1OC21 (centres undefined)
6. C=CC[Se]C(=O)c1ccccc1OC(C)=O

[1.97, 0.52, -0.49, 1.02, 1.46, 0.12]

# per-item lookup of log10(TGI); items listed below
1. CCCCN(CCCC)c1cc(C(=O)CCCCCN)c2ccccc2n1
2. O=C(/C=C/c1ccccc1O)c1ccccc1
3. Nc1ccc(S(=O)(=O)Nc2nc3ccccc3nc2Nc2ccc(S(N)(=O)=O)cc2)cc1
4. COc1cc(-c2nn(C)nc2-c2cc3ccccc3s2)cc(OC)c1OC

[0.59, 1.42, 1.86, 1.18]

###

- Tested on: SK-MEL-5 melanoma
- Protocol details: NCI tumour cell line growth inhibition, 48 h; in the data active means GI50 below about 0.43 µM; inactive means the rest
The categories you may choose from are y (active), n (inactive)

Sample answers from the record:
Compound	Group
Cc1cc(N2CCOCC2)nc(N(CCNc2ccnc3cc(Cl)ccc23)Cc2ccco2)n1	n
COc1ccc(C2=C(Br)C(=O)OC2)cc1Cl	n
CCCCCCCCCCCCCCCCCC(=O)[O][Sn]([CH2]CCC)([CH2]CCC)[CH2]CCC	y

Now for another entry.
What call does the record list for "Cn1c(=O)c(Sc2ccccc2F)cc2cnc(NC3CCOCC3)nc21" ?
n

###

- Tested on: NCI-H23 lung
- Protocol details: NCI tumour cell line growth inhibition, 48 h
Provide the recorded TGI for the entries that follow.

# per-item lookup of TGI; items listed below
1. CCOC(=O)C(C)OC(=O)c1ccc(C)cc1 (stereo not drawn)
2. CC(C)(C)OC(=O)N1C[C@H](CC(=O)OCc2ccccc2)C[C@H]1C(=O)OCC(Cl)(Cl)Cl

1. > 100 µM
2. > 50 µM

# per-item lookup of TGI; items listed below
1. Cc1cc2c(cc1C)C(=O)c1ncccc1C2=O
2. COc1cc2c3c(n(CCCN=[N+]=[N-])c(=O)c2cc1OC)-c1ccc(N)cc1C3=O
3. COC(=N)C(C)C
4. COc1cc(C2=Nc3c/c(=C\c4c(O)[nH]c5ccc(Cl)cc45)ccc3=N2)cc(OC)c1OC

1: 50.9 µM; 2: 0.73 µM; 3: > 100 µM; 4: 7.61 µM
